Values from patent US11407715B2

- System: Vero cells
- assay-context: African green monkey
# strict inequality: CC50 < 10 µM yields true, everything else yields false

Inquiry: Is CC50 of COc1cc(NC(C(=O)N2CCc3cc(OC)c(C(F)(F)F)cc32)c2ccc(Cl)cc2)cc(OCCC(C)C(=O)O)c1 (single isomer, unassigned) [Compound 20B] strictly below 10 µM?
Reply text: false

Inquiry: Is CC50 of COc1cc(NC(C(=O)N2CCc3cc(OC)c(C(F)(F)F)cc32)c2ccc(Cl)cc2)cc(OCC2CC(C(=O)O)C2)c1 (stereo not drawn) [Compound 25] strictly below 10 µM?
Reply text: false

Inquiry: Is CC50 of COc1cc(NC2CC(C(=O)O)C2)cc(NC(C(=O)N2CCc3ccc(OC(F)(F)F)cc32)c2ccc(Cl)cc2)c1 (single isomer, unassigned) [Compound 33D] strictly below 10 µM?
Reply text: false

Inquiry: Is CC50 of COc1cc(NC(C(=O)N2CCc3cc(F)c(OC(F)(F)F)cc32)c2ccc(Cl)cc2)cc(OC2CC(C(=O)O)C2)c1 (single isomer, unassigned) [Compound 27B] strictly below 10 µM?
Reply text: false

Inquiry: Is CC50 of COc1cc(CCCCC(=O)O)cc(NC(C(=O)N2CCc3ccc(OC(F)(F)F)cc32)c2ccc(Cl)cc2)c1 (single isomer, unassigned) [Compound 14B] strictly below 10 µM?
Reply text: true

Inquiry: Is CC50 of COc1cc(NC(C(=O)N2CCc3cc(OC)c(C(F)(F)F)cc32)c2ccc(Cl)cc2)cc(OCCC(C)(C)C(=O)O)c1 (single isomer, unassigned) [Compound 21B] strictly below 10 µM?
Reply text: false

Inquiry: Is CC50 of COc1cc(NC(C(=O)N2CCc3ccc(OC(F)(F)F)cc32)c2ccc(Cl)cc2OC)cc(OCCC(C)(C)C(=O)O)c1 (single isomer, unassigned) [Compound 18B] strictly below 10 µM?
Reply text: false

Inquiry: Is CC50 of COc1cc(NC(C(=O)N2CCc3ccc(OC(F)(F)F)cc32)c2ccc(Cl)cc2)cc(OCC2(F)CC2C(=O)O)c1 (stereo not drawn) [Compound 29AA] strictly below 10 µM?
Reply text: true

Inquiry: Is CC50 of COc1cc(NC(C(=O)N2CCc3cc(OC)c(C(F)(F)F)cc32)c2ccc(Cl)cc2)cc(OCC2CC(C(=O)O)C2)c1 (stereo not drawn) [Compound 24B] strictly below 10 µM?
Reply text: false

Inquiry: Is CC50 of COc1cc(NC(C(=O)N2CCc3ccc(OC(F)(F)F)cc32)c2ccc(Cl)cc2)cc(OCC2CC2C(=O)O)c1 (stereo not drawn) [Compound 6BA] strictly below 10 µM?
Reply text: true

Inquiry: Is CC50 of COc1cc(NC(C(=O)N2CCc3ccc(OC(F)(F)F)cc32)c2ccc(Cl)cc2)cc(OC2CC(C(=O)O)C2)c1 (stereo not drawn) [Compound 8B] strictly below 10 µM?
Reply text: false
